Exercise: for every item that follows, state its recorded IC50.
- target_or_system: UniProt:P10635
- Sequence (P10635 whole entry): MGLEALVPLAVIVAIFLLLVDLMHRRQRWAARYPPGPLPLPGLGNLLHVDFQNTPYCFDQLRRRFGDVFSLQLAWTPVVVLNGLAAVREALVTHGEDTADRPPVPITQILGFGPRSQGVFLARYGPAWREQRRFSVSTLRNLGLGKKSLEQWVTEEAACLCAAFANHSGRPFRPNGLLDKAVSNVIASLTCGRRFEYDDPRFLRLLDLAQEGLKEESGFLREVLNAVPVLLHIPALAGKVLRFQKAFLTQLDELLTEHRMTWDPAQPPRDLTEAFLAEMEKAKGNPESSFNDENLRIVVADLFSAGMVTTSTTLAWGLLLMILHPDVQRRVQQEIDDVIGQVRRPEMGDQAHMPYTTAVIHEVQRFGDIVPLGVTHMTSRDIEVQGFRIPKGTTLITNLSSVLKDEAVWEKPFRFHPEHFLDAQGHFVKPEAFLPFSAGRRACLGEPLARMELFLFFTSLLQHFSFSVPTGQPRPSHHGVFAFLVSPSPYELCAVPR
- experiment: Cytochrome P450 inhibition assay, recombinant CYP2D6 (MAMC substrate)
- Assay type: in vitro ADME
- run_parameters: recombinant enzyme
Answers are plain numbers, in nM.

Look up IC50 for the entries below, preserving their order.
1. CNC[C@H](c1ccc2ccccc2c1)[C@H](OCC(=O)N(C)C)c1ccccc1 [Compound 33]
2. CNC[C@H](c1ccc(-c2ccccc2)cc1)[C@H](O)c1ccccc1 (racemic) [Compound 113]
3. CNC[C@H](c1ccc2ccccc2c1)[C@H](OCC(=O)NC1CC1)c1ccccc1 [Compound 13]

Outgoing:
1. 550
2. 220
3. 400

Report IC50 for every entry below.
1. CNC[C@@H](c1ccc(Cl)c(Cl)c1)[C@H](O)c1cccc(NC(C)=O)c1 [Compound 98]
2. CNC[C@@H](c1ccc(Cl)c(Cl)c1)[C@@H](O)c1cccc(OC)n1 [Compound 157]
3. CNC[C@H](c1ccc2ccccc2c1)[C@H](O)c1ccc2c(c1)OCCO2 [Compound 143]
4. CCNC(=O)CO[C@H](c1ccccc1)[C@H](CNC)c1ccc2ccccc2c1 [Compound 6]

Outgoing:
1: 850; 2: 580; 3: 160; 4: 760
